# Tested on: SF-268 CNS
# method: NCI-60 one-dose screen, 48 h (100 = growth as untreated, 0 = no growth, -100 = all killed)
# cond: 10 µM unless noted
About 83,000 compounds went through this panel and 20% of them were active in at least one assay; those are over-represented in the sample as a whole.
quantity-measured: growth (%)
One number for each entry, in %.

Sample answers from the record:
1) N#CC(C#N)N=Nc1cc(Cl)ccc1Cl ... 95
2) CCCCOC(=O)/C=C\C(=O)NC(N)=O ... 96.6
3) CC(C)C(C)(C)c1ccc(O)cc1 ... 99.8

Please supply growth for each of the following items, keeping them in order.
1. CC(C)(O)C(=O)O
2. O=[N+]([O-])c1cccc(SSc2cccc([N+](=O)[O-])c2)c1
3. CCc1cc(C)cc(O)c1

[out]
1: 103; 2: 106; 3: 124

* * *

Assignment: determine reported growth for the given compounds.
# Test system: SNB-19 CNS
# method: NCI-60 one-dose screen, 48 h (100 = growth as untreated, 0 = no growth, -100 = all killed)
# cond: 10 µM unless noted
The panel holds about 83,000 compounds, 20% with a hit somewhere; the sample as a whole holds those more often. Active and inactive are the calls of the source. The calls were made as follows: active = growth percent below 10; inactive = the rest.

For every listed record, write down its growth.
1. c1ccc(-c2nc3ccccc3s2)cc1
2. N#CC(C#N)N=Nc1ccc(Cl)cc1
3. Nc1nc(N)c2[nH]cnc2n1
4. O=C1OC(c2ccccc2)=N/C1=C\c1ccccc1

[out]
95.3% (inactive)
94.2% (inactive)
96.1% (inactive)
98.9% (inactive)

Lab note: each compound below needs its growth filled in.
1. C/C(=C\c1ccccc1)c1ccccn1
2. COc1ccc(C(=O)CC(c2ccccc2)C(C#N)c2ccccc2)cc1 (configuration not stated)
3. CC(C)NC(=O)N/C=C(\C#N)C(N)=O

[out]
92.1% (inactive)
92.4% (inactive)
110% (inactive)

* * *

# Tested on: CAKI-1 renal
# method: NCI-60 one-dose screen, 48 h (100 = growth as untreated, 0 = no growth, -100 = all killed)
# cond: 10 µM unless noted
The panel holds about 83,000 compounds, 20% with a hit somewhere; the sample as a whole holds those more often.
Record form. Attribute: growth. Fill in for each entry.
One number for each entry, in %.

Some solved cases for reference:
1. c1ccc(CNCCNCc2ccccc2)cc1 ... 98.5
2. CC(=O)OC(C)C(=O)NCC(C)O (stereo unspecified) ... 108
3. O=C(/C=C/c1ccccc1)c1ccccc1 ... 99.2
4. Oc1ccc(Cc2ccccc2Cl)c(O)c1 ... 91

Hey, quick one: what's growth for each of these?
1. COc1cc(C(O)C2C(=O)OCC2C2(c3ccc4c(c3)OCO4)SCCCS2)cc(OC)c1OC (stereo unspecified)
2. CC(=O)NCC(=O)c1ccc([N+](=O)[O-])cc1
3. COc1ccc(Nc2ccc3ccccc3c2)cc1

[out]
[93.8, 103, 52.3]

* * *

# Test system: HCT-116 colon
# method: NCI-60 one-dose screen, 48 h (100 = growth as untreated, 0 = no growth, -100 = all killed)
# cond: 10 µM unless noted
# Method: Growth inhibition of the HCT-116 human tumor cell line is measured as a screen for anti-cancer activity. Cells are grown in 96 well plates and exposed to the test compound for 48 hours. Compounds are tested at a single concentration, which is 10^-5 M for most compounds. The reported endpoint is percent growth (GI% or GIPRCNT), where numbers from 0 - 100% represent growth inhibition, and numbers from -100% - 0 represent cell death. For example, a value of 40 represents 60% growth inhibition. […]
This is part of a sample that, as a whole, favours compounds with a hit. Of some 83,000 tested, about 20% had one in any assay.
Assignment: determine reported growth for the given molecules.
Answers are plain numbers, in %.

1) NN1CCOC(c2ccccc2)C1 (centres undefined) ... 91.2
2) COc1ccc(C(=O)CC(c2ccccc2)C(C#N)c2ccccc2)cc1 (centres undefined) ... 91.2

Hello, I would appreciate it if you could give growth for each entry below.
1. N#CC(C#N)N=Nc1cc(Cl)ccc1Cl
2. CC1CCC(C(C)C)C(NNC(N)=O)C1 (centres undefined)
3. c1ccc(-c2nc3ccccc3s2)cc1

[out]
97.2
99.5
97.3
